- System: BDF1 mice, P388 leukemia ip, median survival T/C
- method description: NCI In Vivo Anticancer Drug Screen. Data for tumor model P388 Leukemia (intraperitoneal) in B6D2F1 (BDF1) mice
- run parameters: endpoint: median survival time; dose: 12.5 mg/kg/injection; schedule: Q01DX009 (ip); vehicle: saline
- Protocol: The antitumor activity of compounds was measured in mice bearing transplantable tumors. Survival or tumor size were measured and the results are expressed as the measurement made in the treated group (T) divided by the measurement made in the vehicle treated control group (C). The tumor model used in this assay is P388 Leukemia (intraperitoneal) in B6D2F1 (BDF1) mice
Toxic doses and inconclusive results are not listed. How the source made its calls: active means survival T/C of 150% or more; inactive means T/C below 125% in these data.
API: response.call in True (active), False (inactive)

Completed entries (count: 6):
CC1C[N+](C)=C2CCCCC2=C1N (stereo not drawn)    False
F    False
NNc1cccc(C(F)(F)F)c1    False
CC(=O)NC1=C(N2CC2C)C(=O)C(NC(C)=O)=C(N2CC2C)C1=O (stereo not drawn)    True
O=C(/C=C/c1ccncc1)c1cccc2ccccc12    False
COc1cc(NCCCC(C)N)c2ncccc2c1OC (stereo not drawn)    False

Status in this test for `Clc1ccc2nc(CBr)cnc2c1` ?
False

Status in this test for NCCC(O)C(=O)NC1CC(N)C(OC2OC(CO)C(O)C(O)C2N)C(OC2OC(CO)C(O)C2O)C1O (stereo not drawn) ?
False

Status in this test for `Nc1ccc(C(=O)Nc2ccc(N(CCCl)CCCl)cc2)cc1` ?
False

Status in this test for `C/C(=N/N(C)C)c1ccc([N+](=O)[O-])cc1` ?
False

Status in this test for N=C(N)c1cn(C2OC(CO)C(O)C2O)c2ncnc(N)c12 (stereo not drawn) ?
False

---

- Test system: BDF1 mice, P388 leukemia ip, median survival T/C
- method description: NCI In Vivo Anticancer Drug Screen. Data for tumor model P388 Leukemia (intraperitoneal) in B6D2F1 (BDF1) mice
- run parameters: endpoint: median survival time; dose: 100.0 mg/kg/injection; schedule: Q04DX003 (ip); vehicle: Klucel (hydroxypropylcellulose) (HPC); higher = longer survival
Inconclusive results and toxic doses are left out. Residues, ends and D or L forms follow the SMILES beside them. *: point of attachment. Cbz = O=C(OCc1ccccc1)*; Bn = c1ccc(C*)cc1
Reported T/C is given for each of the following molecules.

Consider the worked cases shown below.
N=N/C(=C\c1c(O)[nH]c2ccccc12)c1ccccc1    108 % of control
O=[N+]([O-])c1cccc(C=Nc2cccc(C(F)(F)F)c2)c1    104 % of control
NC(=S)N/N=C/c1c[nH]c2ccccc12    100 % of control
CN(C)c1ccc(Cc2ccc(N(C)C)cc2[N+](=O)[O-])c([N+](=O)[O-])c1    104 % of control
CCCCCCCCCCNc1ccc(NCCCCCCCCCC)cc1    120 % of control

T/C for `Cc1ccc(N(N)c2ccc(C)cc2)cc1` ?
107 % of control

T/C for `c1ccc(Nc2ccc(Nc3ccccc3)cc2)cc1` ?
104 % of control

T/C for `COC(=O)CCCCCCCC(=O)OCC#CC#CCOC(=O)CCCCCCCC(=O)OC` ?
109 % of control

T/C for `O=C1c2ccccc2C(=O)c2c(Nc3ccc(CCO)cc3)ccc(O)c21` ?
100 % of control

T/C for `CCOC(=O)/C(C#N)=C\C=C\c1ccccc1` ?
86 % of control

T/C for O=C(c1ccc([N+](=O)[O-])cc1)C(Br)C(Br)c1ccncc1 (stereo not given) ?
113 % of control

T/C for `Cc1c(Cl)c(Cl)c(C)c(Cl)c1Cl` ?
94 % of control

T/C for `OCC1(c2ccccc2)CCN(Cc2ccccc2)CC1` ?
91 % of control

T/C for O=C(c1ccccc1Br)C(Br)C(Br)c1ccccc1 (stereo not given) ?
120 % of control

T/C for CC1(C)C2CC3C(=CCCC3C#N)C1C2 (stereo not given) ?
100 % of control

T/C for `CN(C)C(=S)SC(=S)N(C)C` ?
109 % of control

T/C for CC(C)CC(NC(=O)C1CCCN1C(=O)C(CSCc1ccccc1)NC(=O)C(CC(N)=O)NC(=O)C(CCC(N)=O)NC(=O)OCc1ccccc1)C(=O)NCC(N)=O (stereo not given) (Cbz-QNC(Bn)PLG-NH2; configuration not given here) ?
105 % of control

T/C for `CC1C(=O)OC(C)(C)OC1=O` ?
97 % of control

T/C for `CCOC(=O)CCCl` ?
100 % of control

T/C for `C[C@]12CC[C@H]3C(=CCc4cc(O)ccc43)[C@@H]1C/C(=N\O)C2=O` ?
104 % of control

T/C for CCCCC(C(C)=O)C(C)C (stereo not given) ?
111 % of control
